TESTED_TARGET: T1, Fc
T1 construct: domain: Fc
PROTOCOL_TEXT: phage ELISA, Fc coated
ASSAY_METRIC: OD490 (OD)
Output spec: scalar in OD, unitless text.

Study these solved cases before continuing.
[
  {
    "BINDER": "ACVR2B D07 (monoclonal scFv-phage) (scFv, V domains shown, also called D7) VH: QVQLVQSGAEVKKPGASVKVSCKASGYTFTSYYMHWVRQAPGQGLEWMGIINPSGGSTSYAQKFQGRVTMTRDTSTSTVYMELSSLRSEDTAVYYCAKDQSRGWYSNFDSWGQGTLVTVSS VL: DIQMTQSPSTLSASVGDRVTITCRASQTVSNWLAWYQLKPGKAPKLLIYKASSLESGVPSRFSGTGSETEFTLTISSLQPDDFATYYCQQYHSYPITFGQGTRLEIK",
    "OD490, OD": 0.042
  },
  {
    "BINDER": "ACVR2B B11 (monoclonal scFv-phage) (scFv, V domains shown) VH: VQLVESGGGLVQPGRSLRLSCAASGFTFDNHAMHWVRRAPGKGLEWVSGISWNGGTTAYADSVKGRFSIFRDNAEKSLYLQMNSLRAEDTAVYYCARGSSSGRYYFDYWGQGTLVTVSS VL: DIQMTQSPSSVSASVGDRVTITCRASQGISTYLNWYQHQSGKAPKLLIYGAFRLQSGVPSRFSGSGSGTDFTLTISNLQPEDFATYYCQQAKNFPLTFGGGTKVDIK",
    "OD490, OD": 0.047
  }
]

Indicate the recorded OD490 value for this binder: ACVR2B A09 (monoclonal scFv-phage) (scFv, V domains shown, also called A9) VH: VQLVESGGGLVQPGRSLRLSCAASGFTFDSYWMSWVRQAPGKGLEWVANIKYDGSEKHYMDSVKGRFTISRDNAKNSVYLQMNSLRAEDTAVYYCAKGAWLDYWGQGTQVTVSS VL: IQMTQSPSAMSASVGDRVTITCRASQGISNYLAWFQQKPGKVPKRLIYAASSLQSGVPSRFSGSGSGTGFTLTITSLQPEDFATYYCLQHKSYPYTFGQGTKLEIK
0.048

Indicate the recorded OD490 value for this binder: ACVR2B B08 (monoclonal scFv-phage) (scFv, V domains shown, also called B8) VH: VQLVQSGGGLVHPGQSLRLSCTGSGFPFGDYSMTWVRQAPGKGLEWVGLVRSKAYGGTTEYAASVKGRFIMSRDDSRSIAYLQMNSLRAEDTAVYYCARGHYGMDVWGQGTTVTVSS VL: DIQMTQSPSSVSASVGDRVTITCRASQGISNWLAWYQQKPGKAPKLLIYAASSLQSGVPSRFSGSGSGTDFTLTISSLQPEDFATYYCQQAKSYPYTFGQGTKVEIK
0.045

Indicate the recorded OD490 value for this binder: ACVR2B D11 (monoclonal scFv-phage) (scFv, V domains shown) VH: MQLVQSGGGLVQPGRSLGLSCTASGFTFGDYAMSWVRQAPGKGLEWVGFIRSKAYGGTTEYAASVKGRLTISRDDSKSIAYLQMNSLRAEDTAVYYCARGHYGMDVWGQGTTVTVSS VL: DIQMTQSPSSLSASVGDRVTITCRASQNISNFLNWYQQKPGKAPKLLIYSASRLQRGVPSRFSGSGSGTDFTLTISSLQPEDFATYYCQQSYSTPYTFGQGTKLEIK
0.042
